These entries and their values trace back to PubChem BioAssay AID1159580.

Field: normalized growth. Provide a value for each of the compounds that follow.
Assay: chemical genetic growth profiling, strain panel (AID 1159580);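 note: tested at 20 µM; growth read once vehicle control cultures reached saturation at 30 °C; 1 = growth at the plate median or of vehicle wells; lower values mean less growth of the strain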
Details: S. cerevisiae deletion strains, growth OD, locus YBL061C, strain skt5, active compounds read low
The campaign covered roughly 5,500 compounds. About 2,000 (36%) were called active. Roughly 18% stayed inconclusive and do not appear here. The list shows a part of the results.
Answers are plain numbers.

Consider the reported normalized growth for these compounds:
COc1cc(C(=O)NCc2ccc(OCCN(C)C)cc2)cc(OC)c1OC
0.981
O=[N+]([O-])c1cc(O)c(O)c([N+](=O)[O-])c1
1.01
C/C=C/c1ccc2c(c1)OCO2
1.02
N[C@@H](Cc1ccc(O)c(O)c1)C(=O)O
1.01
COc1ccc(C(Cl)=C(c2ccc(OC)cc2)c2ccc(OC)cc2)cc1
0.992
CN1C(CC(=O)c2ccccc2)CCCC1CC(O)c1ccccc1 (stereo unspecified)
0.976

# batch size: 4; output normalized growth per entry
1. CO[C@H]1/C=C/O[C@@]2(C)Oc3c(C)c(O)c4c(O)c(c5c(nc6cc(C)ccn65)c4c3C2=O)NC(=O)/C(C)=C\C=C\[C@H](C)[C@H](O)[C@@H](C)C(O)[C@@H](C)[C@H](OC(C)=O)[C@@H]1C (stereo partly specified)
2. CC(=O)Nc1cc([As](=O)(O)O)ccc1O
3. CCN(CC)CCOc1ccc2c(c1)C(=O)c1cc(OCCN(CC)CC)ccc1-2
4. O=C(O)c1ccccc1Nc1cccc(C(F)(F)F)c1

Reply:
1. 1.04
2. 1
3. 0.993
4. 0.845

Ask: Entry Nc1ccc([As](=O)(O)O)cc1 has what normalized growth?
Reply: 1.01

----------
Experiment: chemical genetic growth profiling, strain panel (AID 1159580);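 note: tested at 20 µM; growth read once vehicle control cultures reached saturation at 30 °C; 1 = growth at the plate median or of vehicle wells; lower values mean less growth of the strain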
Details: S. cerevisiae deletion strains, growth OD, locus YOL147C, strain pex11, active compounds read low
About 2,000 (36%) of roughly 5,500 compounds were called active. Not shown: some 18% with an inconclusive outcome. The list shows a part of the results.
observation type: normalized growth

These solved cases illustrate the format of a correct answer.
O=C(O)CF
0.993 (inactive)
C=C[C@](C)(O)CCC=C(C)C
1 (inactive)
C1CCN2CC3CC(CN4CCCCC34)C2C1 (stereo not given)
1.01 (inactive)
CC(=O)Oc1ccc(Cl)c2cccnc12
0.0595 (active)
COC(=O)Oc1ccccc1C(=O)O
1.02 (inactive)

Return reported normalized growth values for all items listed beneath this line.
1. CN/C(=C\[N+](=O)[O-])NCCSCc1ccc(CN(C)C)o1
2. O=C(O)c1cccnc1Nc1cccc(C(F)(F)F)c1
3. N[C@@H](Cc1ccc(O)c(O)c1)C(=O)O

Reply:
1. 0.99 (inactive)
2. 0.935 (inactive)
3. 1 (inactive)

Would you mind giving normalized growth for every compound in the list below?
1. Cc1ccc(/C(=C\CN2CCCC2)c2ccccn2)cc1
2. CC(C)NCC(O)c1ccc2ccccc2c1 (stereo not given)
3. OC[C@@H]1CCCN2CCCC[C@H]12
4. CC(C)(C)NCC(O)c1ccccc1Cl (stereo not given)
5. O=C(O)CCC(=O)C(=O)O

Reply:
0.992 (inactive)
1 (inactive)
1.02 (inactive)
0.992 (inactive)
1.02 (inactive)

Would you be so kind as to report normalized growth for each listed record?
1. CC(C)=CCC[C@](C)(O)C1CC=C(C)CC1 (stereo not given in full)
2. CN[C@H](CC(=O)O)C(=O)O

Reply:
["0.981 (inactive)", "0.984 (inactive)"]
